Target: PIM1 (Homo sapiens (Human))
Assay: biochemical
Assay type: biochemical
Details: 10 μM ATP, 90 min, room temperature; read-out: PIM1 LC3K (KI)
outcome-measure: Ki (nM)

                                   molecule              measured_target  value
0  Cc1cncc(-c2cc3c(cn2)cnn3-c2cccc(N3CCC[C@@H](O)C3)n2)n1  PIM1 (Homo sapiens (Human))  0.854
1  NC(=O)Cn1cc(-c2cc3c(cn2)cnn3-c2cccc(N3CCCNCC3)n2)cn1  PIM1 (Homo sapiens (Human))  0.283

1 = CCn1cc(-c2cc3c(cn2)cnn3-c2cccc(N3CCC(N)CC3)n2)cn1
2 = Cc1cncc(-c2cc3c(cn2)cnn3-c2cc(N3CCC[C@H](N)C3)c(=O)n(C)c2)n1
# input // compare measured Ki between 1 and 2 ; output the lower one Lab log: write the label of the selected item as the result.
# output 1

a = Cn1cc(-c2cc3c(cn2)cnn3-c2cccc(C3(F)CCCNCC3)n2)cn1 (centres unmarked)
b = Cc1cncc(-c2cc3c(cn2)cnn3-c2cccc(N3CCNC(C)C3)n2)n1 (centres unmarked) [Compound 169]
c = CCn1cc(-c2cc3c(cn2)cnn3-c2cccc(N3CC[C@H](O)C3)n2)cn1
d = C[C@H]1CN(c2cccc(-n3ncc4cnc(-c5cncc(C6COC6)c5)cc43)n2)CCN1
# input Falling order of Ki, please. Form entry: labels listed in requested order.
# output c, a, b, d
(c: 3.04 nM, a: 0.715 nM, b: 0.228 nM, d: 0.107 nM)

A = Cn1cc(-c2cc3c(cn2)cnn3-c2cccc(N3CCNC[C@H](O)C3)n2)cn1
B = Cn1cc(-c2cc3c(cn2)cnn3-c2cccc(N3CC(O)(CN)C3)n2)cn1
C = c1cc(N2CCNCC2)nc(-n2ncc3cnc(-c4cncc(C5CC5)c4)cc32)c1
# input Falling order of Ki, please. Form entry: labels listed in requested order.
# output B, C, A

====

Target: PIM1 (Homo sapiens (Human), UniProt P11309)
Sequence (P11309 whole entry): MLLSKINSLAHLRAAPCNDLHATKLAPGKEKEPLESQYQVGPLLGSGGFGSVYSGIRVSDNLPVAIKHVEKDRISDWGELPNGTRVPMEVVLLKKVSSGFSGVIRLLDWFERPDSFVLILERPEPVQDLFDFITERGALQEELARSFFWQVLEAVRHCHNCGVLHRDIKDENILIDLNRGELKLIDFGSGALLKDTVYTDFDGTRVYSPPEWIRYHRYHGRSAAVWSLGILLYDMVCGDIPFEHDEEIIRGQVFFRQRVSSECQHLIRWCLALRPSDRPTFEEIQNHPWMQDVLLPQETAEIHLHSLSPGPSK
Experiment: biochemical
Type: biochemical
Settings: 10 μM ATP, 90 min, room temperature; read-out: PIM1 LC3K (KI)
outcome-measure: Ki (nM)

>>> print(df.to_string())
                                   molecule  outcome_measure  unit  value
0  CC[C@@H]1CN(c2cccc(-n3ncc4cnc(-c5cnn(CC)c5)cc43)n2)CCN1 [Compound 142]               Ki    nM  0.802
1  C[C@]1(O)CNCCN(c2cccc(-n3ncc4cnc(-c5cnn(CC(F)(F)F)c5)cc43)n2)C1 [Compound 248]               Ki    nM   1.64
2  CCn1cc(-c2cc3c(cn2)cnn3-c2cncc(N3CCCNCC3)n2)cn1 [Compound 163]               Ki    nM   1.63

a = CCn1cc(-c2cc3c(cn2)cnn3-c2cccc(N3CCC[C@@H](N)C3)n2)cn1 [Compound 134]
b = Cn1cc(-c2cc3c(cn2)cnn3-c2cccc(N3CCNCC3)n2)cn1 [Compound 102]
# input Larger number for Ki: a , or b ? Lab log: write the label of the selected item as the result.
# output a
(a: 0.951 nM, b: 0.623 nM)

====

Target: PIM1 (Homo sapiens (Human), UniProt P11309)
Assay: biochemical
Assay type: biochemical
Settings: 10 μM ATP, 90 min, room temperature; read-out: PIM1 LC3K (KI)
outcome-measure: Ki (nM)

// solved cases for Ki follow
In [3]: df
Out[3]:
                                   molecule  unit  value
0  Cc1cncc(-c2cc3c(cn2)cnn3-c2cccc(N3CCC(O)C(O)C3)n2)n1 (centres unmarked) [Compound 312]    nM  0.644
1  Cc1ccc(-n2ncc3cnc(-c4cnn(CC(F)(F)F)c4)cc32)nc1N1CCNC[C@@H](O)C1 (single isomer, unassigned) [Compound 260]    nM  0.047

1 = CCn1cc(-c2cc3c(cn2)cnn3-c2cccc(N3CCC[C@H](N)C3)n2)cn1 [Compound 133]
2 = c1cc(N2CCCNCC2)nc(-n2ncc3cnc(-c4cncc(C5COC5)c4)cc32)c1 [Compound 118]
# input // compare measured Ki between 1 and 2 ; output the lower one Lab log: write the label of the selected item as the result.
# output 2
(2: 0.08 nM, 1: 0.867 nM)

====

Target: PIM3 (Homo sapiens (Human))
Where a name gives a salt, the structure may show the parent alone.
outcome-measure: Ki (pM)

// solved cases for Ki follow
>>> df
                                   compound  unit  value
0  OCc1cncc(-c2cc3c(cn2)cnn3-c2cccc(N3CCNCC3)n2)n1 [Compound 273, dihydrochloride]    pM     36
1  Clc1cncc(-c2cc3c(cn2)cnn3-c2cccc(N3CCNCC3)n2)n1 [Compound 275, dihydrochloride]    pM    267
2  c1cc(N2CCNCC2)nc(-n2ncc3cnc(-c4cncc(C5COC5)c4)cc32)c1    pM    652
3  CCc1cncc(-c2cc3c(cn2)cnn3-c2ccc(C3CC3)c(N3CCC[C@H](N)C3)n2)c1    pM     35
4  CC(C)c1cncc(-c2cc3c(cn2)cnn3-c2cccc(N3CCC[C@H](N)C3)n2)c1    pM     49

1 = Cc1cncc(-c2cc3c(cn2)cnn3-c2cccc(N3C[C@@H](N)CCC3=O)n2)n1
2 = CC(C)c1cncc(-c2cc3c(cn2)cnn3-c2cccc(N3CCNCC3)n2)c1
# input // compare measured Ki between 1 and 2 ; output the lower one Lab log: write the label of the selected item as the result.
# output 2

====

Target: PIM1 (Homo sapiens (Human), UniProt P11309)
Test: biochemical
Format: biochemical
Details: 10 μM ATP, 90 min, room temperature; read-out: PIM1 LC3K (KI)
Procedure: A fluorescent-labeled Pim-specific peptide substrate, was custom synthesized by American Peptide Company (Sunnyvale, Calif.). Reaction Buffer contained 10 mM HEPES, pH 7.2, 10 mM MgCl2, 0.01% Tween 20, 2 mM DTT. […] PIM reactions were carried out in a final volume of 10 μL per well in a 384-well plate. […] Substrate conversion was calculated from the electropherogram using HTS Well Analyzer software (Caliper Life Sciences, Hopkinton, Mass.). Ki values for the test compound were calculated.
pKi: −log10 of the molar value. Where a name gives a salt, the structure may show the parent alone.
outcome-measure: pKi

// solved cases for pKi follow
>>> df
                                   compound  value
0  OCCn1cc(-c2cc3c(cn2)cnn3-c2cccc(N3CCCNCC3)n2)cn1   9.67
1  c1cc(N2CCNCC2)nc(-n2ncc3cnc(-c4cncc(C5COC5)c4)cc32)c1   9.32
2  CC(C)n1cc(-c2cc3c(cn2)cnn3-c2cccc(N3CCCNCC3)n2)cn1   9.27
3  OC[C@@H]1CCCN1c1cncc(-c2cc3c(cn2)cnn3-c2cccc(N3CCNCC3)n2)n1 [Compound 280, dihydrochloride]  10.29
4  Cn1cc(-c2cc3c(cn2)cnn3-c2cn(C)c(=O)c(N3CCNCC(O)C3)n2)cn1 (stereo not shown)   7.51

A = c1cc(N2CCCNCC2)nc(-n2ncc3cnc(-c4cnn(CC5COC5)c4)cc32)c1
B = OCCCc1cncc(-c2cc3c(cn2)cnn3-c2cccc(N3CCNCC3)n2)n1
# input Larger number for pKi: A , or B ? Lab log: write the label of the selected item as the result.
# output B
(B: 10.47, A: 6.54)

====

Biological target: PIM2 (Homo sapiens (Human))
Sequence (Q9P1W9 whole entry): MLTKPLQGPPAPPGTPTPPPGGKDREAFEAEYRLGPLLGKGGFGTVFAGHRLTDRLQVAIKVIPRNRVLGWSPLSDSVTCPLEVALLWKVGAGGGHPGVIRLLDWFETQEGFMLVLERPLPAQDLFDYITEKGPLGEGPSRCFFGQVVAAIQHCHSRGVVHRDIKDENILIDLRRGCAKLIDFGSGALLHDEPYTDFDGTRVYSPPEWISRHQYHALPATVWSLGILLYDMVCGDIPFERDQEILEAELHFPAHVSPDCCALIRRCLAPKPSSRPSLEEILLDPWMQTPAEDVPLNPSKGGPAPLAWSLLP
Assay: Pim kinase binding activity, Caliper LC3000 microfluidic peptide phosphorylation assay, PIM2
Format: biochemical
Details: 10 μM ATP, 90 min, room temperature; read-out: PIM2 LC3K (KI)
outcome-measure: Ki (nM)

>>> df
                                   compound              measured_target  value
0  Cn1cc(-c2cc3c(cn2)cnn3-c2cccc(C3(O)CCCNCC3)n2)cn1 (stereo not drawn) [Compound 230]  PIM2 (Homo sapiens (Human))   63.3

1 = CNc1cccc(-n2ncc3cnc(-c4cncc(C)n4)cc32)n1 [Compound 297]
2 = Cn1cc(-c2cc3c(cn2)cnn3-c2cccc(C3CCCNCC3)n2)cn1 (stereo not drawn) [Compound 235]
# input Larger number for Ki: 1 , or 2 ? Lab log: write the label of the selected item as the result.
# output 2
(2: 16.5 nM, 1: 3.43 nM)

====

Target: PIM1 (Homo sapiens (Human), UniProt P11309)
Assay: biochemical
Assay type: biochemical
Conditions: 10 μM ATP, 90 min, room temperature; read-out: PIM1 LC3K (KI)
outcome-measure: Ki (nM)

>>> df
                                   molecule  unit  value
0  CCc1cncc(-c2cc3c(cn2)cnn3-c2cccc(N3CCNCC3)n2)c1    nM  0.119
1  Cn1cc(-c2cc3c(cn2)cnn3-c2cccc(C3(O)CCCNCC3)n2)cn1 (stereo not drawn)    nM   5.05
2  Cc1cncc(-c2cc3c(cn2)cnn3-c2cccc(N3CCNC(C)C3)n2)n1 (single isomer, unassigned) [Compound 193]    nM  0.046
3  COc1ccc(-n2ncc3cnc(-c4cncc(C)n4)cc32)nc1N1CCCNC1=O    nM   48.8

a = Cc1cncc(-c2cc3c(cn2)cnn3-c2ccc(C)c(N3CCC[C@H](N)C3=O)n2)n1
b = Cc1cncc(-c2cc3c(cn2)cnn3-c2cn(C)c(=O)c(N3CCC[C@H](N)C3)n2)n1
c = CCn1cc(-c2cc3c(cn2)cnn3-c2cccc(N3CC[C@@H](N)C3)n2)cn1
d = Cc1cc(-c2cc3c(cn2)cnn3-c2cccc(N3CCC[C@H](N)C3)n2)sn1
e = Cn1ncc(-c2cc3c(cn2)cnn3-c2cccc(N3CCCNCC3)n2)cc1=O
# input Ordering: ascending Ki. Form entry: labels listed in requested order.
# output d, c, b, a, e

Every entry's value here was drawn from patent US9434725B2.
